Target: T1, hCLEC12B (human, UniProt Q2HXU8 1-276)
T1 construct: Overexpressed on HEK293 cells
T1 sequence: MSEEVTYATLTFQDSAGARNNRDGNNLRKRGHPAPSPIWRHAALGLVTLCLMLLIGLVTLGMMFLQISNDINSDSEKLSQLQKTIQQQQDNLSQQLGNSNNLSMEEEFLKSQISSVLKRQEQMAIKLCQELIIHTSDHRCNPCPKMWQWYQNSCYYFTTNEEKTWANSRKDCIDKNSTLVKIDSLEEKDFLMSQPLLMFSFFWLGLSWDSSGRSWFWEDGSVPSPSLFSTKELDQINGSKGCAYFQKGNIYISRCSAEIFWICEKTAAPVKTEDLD
Assay: flow cytometry, HEK293 transfectants, 100 nM antibody;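 also: antibody applied at a saturating level and incubated with cells for 30 min at room temperature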
The entries below are paired with their reported % of CD161 binding.
Note: unit % is implicit; provide only the numeric part.

Examples from the recorded data:
Ab12 (antibody, human IgG1, V domains shown, IgG purified from yeast culture) VH: QVQLVESGGGLVKPGGSLRLSCAASGFTFAQYYMSWIRQAPGKGLEWVSYISPSGSTIAYADSVKGRFTISRDNAKNSLYLQMNSLRAEDTAVYYCARSLMATGTHLYFDLWGRGTLVTVSS VL: DIQLTQSPSSVSASVGDRVTITCRASQDISSWLAWYQQKPGKAPKLLIYAASSLQSGVPSRFSGSGSGTDFTLTISSLQPEDFATYYCQQVTSFPPYTFGGGTKVEIK = 0.061
Ab1 (antibody, human IgG1, V domains shown, IgG purified from yeast culture) VH: EVQLLESGGGLVQPGGSLRLSCAASGFAFSTYAMSWVRQAPGKGLEWVSAISAAGGTTYYADSVKGRFTISRDNSKNTLYLQMNSLRAEDTAVYYCAKPLDSSLWADFDLWGRGTLVTVSS VL: DIQMTQSPSSVSASVGDRVTITCRASQGIDSWLAWYQQKPGKAPKLLIYAASSLQSGVPSRFSGSGSGTDFTLTISSLQPEDFATYYCQQASVLPITFGGGTKVEIK = 0.04

Next item in the queue.
Query: Quick one: % of CD161 binding of Ab14 (antibody, human IgG1, V domains shown, IgG purified from yeast culture) VH: QVQLVESGGGLVKPGGSLRLSCAASGFTFGQYYMSWIRQAPGKGLEWVSYISPSGATIAYADSVKGRFTISRDNAKNSLYLQMNSLRAEDTAVYYCARSLMSTGTHLYFDLWGRGTLVTVSS VL: DIQLTQSPSSVSASVGDRVTITCRASQGISDWLAWYQQKPGKAPKLLIYAASSLQSGVPSRFSGSGSGTDFTLTISSLQPEDFATYYCQQVTSFPPYTFGGGTKVEIK ?
Result: 0.064

// data source = patent US20250243281A1
